# Basal_Viability ATP RKO IC50/EC50 listing for each entry below
# System: RKO
# assay: cells
# Type: cell-based
# condition-description: assay number 29; basal

compound | system | qualifying-sign | Basal_Viability ATP RKO IC50/EC50 / µM
COc1cccc2c1C(=O)c1c(O)c3c(c(O)c1C2=O)C[C@@](O)(C(C)=O)C[C@@H]3O[C@H]1C[C@H](N)[C@H](O)[C@H](C)O1 | RKO | = | 0.1182
Cc1cc2c(C(C)C)c(O)c(O)c(C=O)c2c(O)c1-c1c(C)cc2c(C(C)C)c(O)c(O)c(C=O)c2c1O | RKO | = | 0.9156
O=[N+]([O-])c1cccc(S(=O)(=O)NCCNS(=O)(=O)c2cccc([N+](=O)[O-])c2)c1 | RKO | > | 20
Cc1cc2nc3c(=O)[nH]c(=O)nc-3n(C[C@H](O)[C@H](O)[C@H](O)COP(=O)([O-])OP(=O)([O-])OC[C@H]3O[C@@H](n4cnc5c(N)ncnc54)[C@H](O)[C@H]3O)c2cc1C.O.[Na+].[Na+] | RKO | > | 20
Cc1ccc(C(=O)c2cc(O)c(O)c([N+](=O)[O-])c2)cc1 | RKO | = | 1.876
COCC(C)N(C(=O)CCl)c1c(C)csc1C (stereo not drawn) | RKO | > | 20
